Hey, just so you know, these numbers are from the supplement of paper PMC8671470.

System: KU-812
assay.method.text: cell viability (% survival relative to DMSO control, bortezomib = 0%); higher = less cytotoxic
test.settings: 1000 nM; 72 h
Under this convention, yes (1) denotes cell viability strictly below 90% and no (0) denotes cell viability at or above 90%.

Q: Is cell viability of CCOP(=O)(OCC)C(=Cc1cc(C(C)(C)C)c(O)c(C(C)(C)C)c1)P(=O)(OCC)OCC strictly below 90%?
A: yes (1)

Q: Quick check: cell viability of N#CC(C#N)=NNc1ccc(OC(F)(F)F)cc1 under 90%?
A: yes (1)

Q: # strict comparison: is reported cell viability < 90%? input = CCCCN1C[C@H](O)[C@@H](O)[C@H](O)[C@H]1CO
A: no (0)

###

Tested on: myeloid leukemia patient primary cells Pat.3
assay.method.text: cell viability (% survival relative to DMSO control); higher = less cytotoxic
test.settings: 1000 nM; 72 h
Under this convention, met denotes cell viability strictly below 50% and not met denotes cell viability at or above 50%.

Look over these answered cases.
Q: Say whether its cell viability is strictly beneath 50%. Entry: COC(=O)[C@]12CCC(C)(C)C[C@H]1[C@H]1C(=O)C=C3[C@@]4(C)C=C(C#N)C(=O)C(C)(C)[C@@H]4CC[C@@]3(C)[C@]1(C)CC2
A: met

Q: Identify whether the compound O=C(O)C1=CC(=C(c2ccc(O)c(C(=O)O)c2)c2ccc(O)c(C(=O)O)c2)C=CC1=O records cell viability below 50%.
A: not met

Q: Is it true that cell viability reported for C=C(C=NNC(=N)N)NNC(=N)N is less than 50%?
A: met

Others:
Q: Find out if reported cell viability for C[C@H](NC(=O)c1sccc1OCc1ccc(Cl)cc1)c1ccccc1 is less than 50%
A: not met

Q: is_below(cell viability, 50%) for N#CC(C#N)=NNc1ccc(OC(F)(F)F)cc1 ?
A: met

###

System: HL-60
test.settings: 72 h
// reported IC50 (cell viability) per item

Study these solved cases before continuing.
Q: May I ask what IC50 (cell viability) has been recorded for O=C(O)Cn1nnc(-c2cc(N3CCC(Oc4cc(F)ccc4Br)CC3)no2)n1 ?
A: > 10 µM

Q: # input compound: COC(=O)[C@]12CCC(C)(C)C[C@H]1[C@H]1C(=O)C=C3[C@@]4(C)C=C(C#N)C(=O)C(C)(C)[C@@H]4CC[C@@]3(C)[C@]1(C)CC2 ; wanted: its IC50 (cell viability)
A: > 10 µM

Others:
Q: State the recorded IC50 (cell viability) for this entry: O=c1cc(-c2ccccc2)oc2cc(O)c(O)c(O)c12
A: 4.39 µM

Q: // query IC50 (cell viability) value for entry O=C1c2cc([N+](=O)[O-])ccc2-n2c1nc1ccccc1c2=O
A: 1.28 µM

Q: // returns reported IC50 (cell viability) for input Nc1nc(Cl)nc2c1ncn2[C@H]1C[C@H](O)[C@@H](CO)O1
A: 0.0471 µM

Q: What does the record list as IC50 (cell viability) for Cc1ccccc1C(C(=O)NC1CCCCC1)N(C(=O)Cn1ccnc1C)c1cccc(F)c1 (stereo unspecified) ?
A: > 10 µM

Q: Look up IC50 (cell viability): Cl.NC(CCC(=O)Nc1ccc([N+](=O)[O-])cc1)C(=O)O (stereo unspecified)
A: > 10 µM

Q: IC50 (cell viability) for COc1ccc(C(=O)Nc2c(Cl)cncc2Cl)cc1OC1CCCC1 ?
A: > 10 µM

Q: Item O=C(O)C[C@@]1(O)C[C@@H](CCCCCCc2ccc(Cl)cc2Cl)OC1=O has what recorded IC50 (cell viability)?
A: > 10 µM

Q: Requested field: IC50 (cell viability). Item: CC(C)c1nc(CN(C)C(=O)N[C@H](C(=O)N[C@@H](Cc2ccccc2)C[C@H](O)[C@H](Cc2ccccc2)NC(=O)OCc2cncs2)C(C)C)cs1
A: > 10 µM

Q: Give the measured IC50 (cell viability) of C=C(C=NNC(=N)N)NNC(=N)N .
A: 7.01 µM
